Reference source: patent US7183295B2

- target_system: human PPARγ (182–505aa) ligand binding domain (Homo sapiens, UniProt P37231)
- Construct: γ(182–505aa); expressed in transfected cells; host or cells: COS-7
- Sequence (P37231 182-505): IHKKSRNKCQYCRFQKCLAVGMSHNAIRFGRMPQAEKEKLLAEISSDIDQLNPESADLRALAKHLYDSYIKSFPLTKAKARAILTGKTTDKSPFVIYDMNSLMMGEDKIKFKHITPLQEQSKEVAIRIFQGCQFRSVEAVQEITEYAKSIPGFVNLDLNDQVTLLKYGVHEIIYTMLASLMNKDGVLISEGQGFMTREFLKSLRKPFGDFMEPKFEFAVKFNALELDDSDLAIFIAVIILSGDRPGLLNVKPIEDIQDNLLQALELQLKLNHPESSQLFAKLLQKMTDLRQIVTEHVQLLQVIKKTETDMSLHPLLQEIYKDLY
- experiment_summary: PPAR transfection (Gal4-LBD luciferase reporter) assay, hPPARγ
- Assay type: cell-based
- details: transfected COS-7 cells, 16 hours, luciferase activity; read-out: hPPAR; EC50 γ (agonist activity)
pEC50: −log10 of the molar value.
property_label: pEC50

Form field pEC50, entry CC(Oc1cccc(CCN(CCOc2ccccc2)c2nc3ccccc3o2)c1)C(=O)O (stereo not shown) [Example 31] : < 4.00

Recorded result, COc1ccc2oc(N(CCOc3ccccc3)CCc3cccc(OC(C)C(=O)O)c3)nc2c1 (stereo not shown) [Example 44] , pEC50: < 4.00

Quick note, pEC50 for CCC(Oc1cccc(CN(CCOc2ccc(OS(C)(=O)=O)cc2)c2nc3ccccc3o2)c1)C(=O)O (stereo not shown) [Example 231] landed at < 5.00

Summary for this compound, CCC(Oc1cccc(CN(CCOc2ccccc2)c2nc3cc(F)ccc3o2)c1)C(=O)O (stereo not shown) [Example 229] : pEC50 is < 5.00

* * *

- target_system: human PPARδ (137–441aa) ligand binding domain (Homo sapiens, UniProt Q03181)
- Construct: δ (137–441aa); expressed in transfected cells; host or cells: COS-7
- experiment_summary: PPAR transfection (Gal4-LBD luciferase reporter) assay, hPPARδ
- Assay type: cell-based
- details: transfected COS-7 cells, 16 hours, luciferase activity; read-out: hPPAR; EC50 δ (agonist activity)
property_label: EC50 (nM)

CCC(Oc1cccc(CN(CCCOc2ccc(OC)cc2)c2nc3ccccc3o2)c1)C(=O)O (centres unmarked) [Example 14] : 1700
CCC(Oc1cccc(CCN(CCCOc2ccccc2)c2nc3ccccc3o2)c1)C(=O)O (centres unmarked) [Example 38] : 1400

* * *

- target_system: human PPARγ (182–505aa) ligand binding domain (Homo sapiens, UniProt P37231)
- Construct: γ(182–505aa); expressed in transfected cells; host or cells: COS-7
- experiment_summary: PPAR transfection (Gal4-LBD luciferase reporter) assay, hPPARγ
- Format: cell-based
- details: transfected COS-7 cells, 16 hours, luciferase activity; read-out: hPPAR; EC50 γ (agonist activity)
pEC50: −log10 of the molar value.
Overview of recorded pEC50 for various compounds

Field: example entries. Status: answers known.
CCC(Oc1cccc(CN(CCCOc2ccc(OC)cc2)c2nc3ccccc3o2)c1)C(=O)O (stereo not drawn) : < 4.00
CCC(Oc1cccc(CCN(CCOc2ccc(OC)cc2)c2nc3cc(Cl)ccc3o2)c1)C(=O)O (stereo not drawn) : < 4.30

human PPARγ (182–505aa) ligand binding domain (Homo sapiens, UniProt P37231) pEC50 of CC(Oc1cccc(CN(CCCC(=O)c2ccccc2)c2nc3ccccc3o2)c1)C(=O)O (stereo not drawn) is < 5.00

* * *

- target_system: human PPARδ (137–441aa) ligand binding domain (Homo sapiens)
- Construct: δ (137–441aa); expressed in transfected cells; host or cells: COS-7
- Sequence (Q03181 137-441): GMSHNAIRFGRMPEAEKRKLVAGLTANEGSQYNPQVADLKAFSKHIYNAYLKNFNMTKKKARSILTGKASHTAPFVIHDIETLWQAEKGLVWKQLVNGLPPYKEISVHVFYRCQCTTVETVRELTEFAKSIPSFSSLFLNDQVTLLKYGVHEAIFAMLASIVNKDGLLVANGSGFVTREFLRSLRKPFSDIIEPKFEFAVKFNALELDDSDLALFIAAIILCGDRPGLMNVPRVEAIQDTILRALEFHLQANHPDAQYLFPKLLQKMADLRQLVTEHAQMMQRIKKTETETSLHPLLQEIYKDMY
- experiment_summary: PPAR transfection (Gal4-LBD luciferase reporter) assay, hPPARδ
- Assay type: cell-based
- details: transfected COS-7 cells, 16 hours, luciferase activity; read-out: hPPAR; EC50 δ (agonist activity)
pEC50: −log10 of the molar value.
property_label: pEC50

These recorded examples may help you get a feel for the data.
CC(Oc1cccc(CCN(CCOc2ccccc2)c2nc3ccccc3o2)c1)C(=O)O (stereo not drawn) [Example 31] : < 4.30
CCC(Oc1cccc(CN(CCOc2ccc(OS(C)(=O)=O)cc2)c2nc3ccccc3o2)c1)C(=O)O (stereo not drawn) [Example 231] : < 4.00

As a next step, examine the compound that follows.
Lab note: measured pEC50 of CC(C)(Oc1cccc(CN(CCOc2ccc(Cl)cc2)c2nc3ccccc3o2)c1)C(=O)O [Example 6] was < 4.00
